Tested on: M14 melanoma
Assay: NCI-60 one-dose screen, 48 h
Settings: 10 µM unless noted
Experimental: Growth inhibition of the M14 human tumor cell line is measured as a screen for anti-cancer activity. Cells are grown in 96 well plates and exposed to the test compound for 48 hours. Compounds are tested at a single concentration, which is 10^-5 M for most compounds. The reported endpoint is percent growth (GI% or GIPRCNT), where numbers from 0 - 100% represent growth inhibition, and numbers from -100% - 0 represent cell death. For example, a value of 40 represents 60% growth inhibition. […]
This is part of a sample that, as a whole, favours compounds with a hit. Of some 83,000 tested, about 20% had one in any assay. The source made the active and inactive calls. The calls were made as follows: active = growth percent below 10; inactive = the rest.
Response enum: active, inactive

Consider the worked cases shown below.
compound	assigned.label
N#Cc1c(-c2cccs2)cc(-c2cnccn2)nc1SCC(=O)N/N=C/c1ccncc1	inactive
COC(=O)CCCNCCCn1ccc2cc(NCc3cccc(-c4ccccc4)c3C)ccc21	inactive
Cn1c2nc3ccccc3c-2cc2ccccc21	inactive

Answer briefly: the call reported for CN(C)CC(=O)Nc1nc(-c2cccc(NS(=O)(=O)c3cccc4c(N(C)C)cccc34)c2)cs1 in this assay.
inactive

// same read-out, input: O=C1[C@@H]2Cc3c([nH]c4ccccc34)[C@H](c3ccc(Br)cc3)N2C(=O)CN1C1CCN(Cc2c(Cl)cccc2Cl)CC1
inactive

// same read-out, input: CN1CCN(Cc2ccc(NC(=O)c3cncc(C#Cc4cnc5ccc(N)nn45)c3)cc2C(F)(F)F)CC1
active

// same read-out, input: N#Cc1c(-c2ccc(F)cc2)cc(-c2c[nH]c3ccccc23)nc1-c1c[nH]c2ccccc12
inactive

// same read-out, input: CCOC(=O)C1=C(C)NC(C)=C(C(=O)OC(C)C)C1c1cccc(C#N)c1 (centres undefined)
inactive

// same read-out, input: CCN(CC)c1ccc(/C=N/NC(=O)c2ccc(S(N)(=O)=O)cc2)cc1
active
